target: human synthetic MSK1 (14-438-K, Millipore) (Homo sapiens)
Construct: purchased Millipore 14-438-K
Sequence (O75582 whole entry): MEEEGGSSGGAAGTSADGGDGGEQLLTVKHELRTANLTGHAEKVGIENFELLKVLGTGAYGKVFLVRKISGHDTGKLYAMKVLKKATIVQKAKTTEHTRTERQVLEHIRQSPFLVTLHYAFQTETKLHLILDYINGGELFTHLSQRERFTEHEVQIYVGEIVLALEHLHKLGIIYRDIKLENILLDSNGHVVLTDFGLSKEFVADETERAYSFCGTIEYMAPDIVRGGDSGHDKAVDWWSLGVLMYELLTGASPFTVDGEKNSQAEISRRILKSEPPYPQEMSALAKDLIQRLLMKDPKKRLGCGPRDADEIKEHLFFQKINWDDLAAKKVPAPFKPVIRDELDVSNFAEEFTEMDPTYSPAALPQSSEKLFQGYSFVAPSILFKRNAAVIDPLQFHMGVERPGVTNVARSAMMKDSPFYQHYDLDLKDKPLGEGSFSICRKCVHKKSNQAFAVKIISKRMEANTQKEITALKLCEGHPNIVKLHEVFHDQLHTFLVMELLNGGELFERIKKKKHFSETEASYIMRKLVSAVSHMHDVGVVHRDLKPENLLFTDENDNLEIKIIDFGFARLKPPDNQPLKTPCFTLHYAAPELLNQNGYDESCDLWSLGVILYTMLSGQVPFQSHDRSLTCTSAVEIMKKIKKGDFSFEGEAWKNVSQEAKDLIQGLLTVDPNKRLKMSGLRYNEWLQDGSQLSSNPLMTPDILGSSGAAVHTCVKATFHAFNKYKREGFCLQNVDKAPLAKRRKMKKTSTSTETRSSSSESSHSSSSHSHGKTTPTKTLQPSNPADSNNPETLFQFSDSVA
test-details: MSK1 enzymatic inhibition assay (Kinase-Glo luminescence)
Type: biochemical
experimental-setup: compound at 1 µM; ± Standard Deviation (n = 4); read-out: MSK1 % Inhibition 1 µM
Give inhibition at 1 µM for every item shown.
Quick note: give the figure in %, leave out the unit.

Could you share which inhibition at 1 µM value was measured for Nc1nc2c(-c3ccccc3Cl)cccc2n1CCCCc1ccccc1 [Compound 74d] ? 1

Could you share which inhibition at 1 µM value was measured for Nc1nc2c(-c3ccccc3Cl)cccc2s1 ? -28

Could you share which inhibition at 1 µM value was measured for N=C(N)Nc1cccc(-c2cccc(Cl)c2Cl)n1.O=C(O)C(F)(F)F ? 7

Could you share which inhibition at 1 µM value was measured for Br.Nc1nc2c(-c3ccccc3Cl)cccc2[nH]1 [Compound 49d] ? 21

Could you share which inhibition at 1 µM value was measured for Nc1nc2cccc(-c3ccccc3Cl)c2n1CCc1ccccc1 ? -6

Could you share which inhibition at 1 µM value was measured for N=C(N)Nc1cc(-c2ccccc2)ccn1 ? -4

Could you share which inhibition at 1 µM value was measured for N=C(N)Nc1cccc(-c2ccccc2)n1 ? 4

Could you share which inhibition at 1 µM value was measured for COc1ccccc1-c1cccc(NC(=N)N)n1 ? 16
